System: T. gondii-ΔHXGPRT
experimental_protocol: T. gondii-ΔHXGPRT fluorescence growth assay
Format: cell-based
test_context: Toxoplasma gondii, read-out: EC50 T. gondii-ΔHXGPRT growth
observation_type: pEC50
Quick note: pEC50 means taking -log10 of the concentration in moles per liter.

Q: Find the recorded pEC50 belonging to `COc1c(C)c2c(c(O)c1C/C=C(\C)CCC(=O)O)C(=O)OC2` and report it.
Ans: 6.54

* * *

observation_type: melting point

Some solved entries appear below for comparison.
O=C(Nc1ccc(Cl)cc1)C(Oc1cccc2ccccc12)c1ccccc1 (centres unmarked)	176 to 178 °C
C[C@@H](Oc1cccc2c1ccc[n+]2[O-])c1cn(-c2ccc(Cl)cc2)nn1	184 to 186 °C
CC(Oc1cccc2ccccc12)c1cn(-c2ccc(Cl)cc2)nn1 (centres unmarked)	98 to 100 °C

Q: Query: melting point; subject: CC(C)C(Oc1cccc2ccccc12)C(=O)Nc1ccc(Cl)cc1 (centres unmarked)
Ans: 150 to 152 °C

Q: // lookup melting point for CC(Oc1cc[n+]([O-])c2ccccc12)c1cn(-c2ccc(Cl)c(Cl)c2)nn1 (centres unmarked)
Ans: 216 to 218 °C

* * *

test_target: CpIMPDH, HpIMPDH, BbIMPDH, SpIMPDH, EcIMPDH and TfIMPDH
test_context: read-out: intrinsic Ki (adjusted for competition from the mobile flap), range over IMPDHs
observation_type: Ki

NC(=O)c1csc([C@@H]2O[C@H](CO)[C@@H](O)[C@H]2O)n1 [Tiazofurin, tiazofurin]	300 to 700 µM

Now for another entry.
Q: Using the record for Nc1ncnc2c1ncn2[C@@H]1O[C@H](COP(=O)(O)OP(=O)(O)O)[C@@H](O)[C@H]1O [ADP] , report its Ki.
Ans: 200 to 9000 µM

* * *

test_target: CpIMPDH, HpIMPDH, BbIMPDH, SpIMPDH, EcIMPDH and TfIMPDH
test_context: read-out: Ki (observed), range over prokaryotic IMPDHs
observation_type: Ki

Q: For the compound shown here, NC(=O)c1csc([C@@H]2O[C@H](CO)[C@@H](O)[C@H]2O)n1 [Tiazofurin, tiazofurin] , give the reported Ki.
Ans: 1 to 69 mM

* * *

// reported melting point for each item listed

CC(Oc1ccnc2ccccc12)c1cn(-c2ccc(C#N)c(Cl)c2)nn1 (stereo not drawn)	194 to 196 °C
C[C@@H](Oc1cccc2ncccc12)c1cn(-c2ccc(Cl)cc2)nn1	94 to 96 °C
Clc1ccc(-n2cc(COc3ccnc4ccccc34)nn2)cc1	230 to 232 °C
C[C@@H](Oc1ccnc2ccccc12)c1cn(-c2ccc(Cl)c(Cl)c2)nn1	62 to 64 °C
CC(Oc1ccnc2ccccc12)c1cn(-c2ccc(Cl)cc2)nn1 (stereo not drawn)	128 to 130 °C
CC(Oc1ccnc2ccccc12)c1cn(-c2ccc(Cl)c(Cl)c2)nn1 (stereo not drawn)	62 to 64 °C
CC(Oc1ccnc2ccccc12)c1cn(-c2ccc(C#N)cc2)nn1 (stereo not drawn)	176 to 178 °C
CC(Oc1ccnc2ccccc12)C(=O)Nc1ccc(Cl)cc1 (stereo not drawn)	170 to 172 °C

As a next step, examine the compound that follows.
Q: GET /values?readout=melting point&item= CC(Oc1cccc2ccccc12)C(=O)Nc1ccc(Cl)cc1 (stereo not drawn)
Ans: 146 to 148 °C
